system: furin, P09958;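 note: purified furin at 1:10 enzyme:substrate in 50 mM HEPES pH 7.5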
Sequence (P09958 whole entry): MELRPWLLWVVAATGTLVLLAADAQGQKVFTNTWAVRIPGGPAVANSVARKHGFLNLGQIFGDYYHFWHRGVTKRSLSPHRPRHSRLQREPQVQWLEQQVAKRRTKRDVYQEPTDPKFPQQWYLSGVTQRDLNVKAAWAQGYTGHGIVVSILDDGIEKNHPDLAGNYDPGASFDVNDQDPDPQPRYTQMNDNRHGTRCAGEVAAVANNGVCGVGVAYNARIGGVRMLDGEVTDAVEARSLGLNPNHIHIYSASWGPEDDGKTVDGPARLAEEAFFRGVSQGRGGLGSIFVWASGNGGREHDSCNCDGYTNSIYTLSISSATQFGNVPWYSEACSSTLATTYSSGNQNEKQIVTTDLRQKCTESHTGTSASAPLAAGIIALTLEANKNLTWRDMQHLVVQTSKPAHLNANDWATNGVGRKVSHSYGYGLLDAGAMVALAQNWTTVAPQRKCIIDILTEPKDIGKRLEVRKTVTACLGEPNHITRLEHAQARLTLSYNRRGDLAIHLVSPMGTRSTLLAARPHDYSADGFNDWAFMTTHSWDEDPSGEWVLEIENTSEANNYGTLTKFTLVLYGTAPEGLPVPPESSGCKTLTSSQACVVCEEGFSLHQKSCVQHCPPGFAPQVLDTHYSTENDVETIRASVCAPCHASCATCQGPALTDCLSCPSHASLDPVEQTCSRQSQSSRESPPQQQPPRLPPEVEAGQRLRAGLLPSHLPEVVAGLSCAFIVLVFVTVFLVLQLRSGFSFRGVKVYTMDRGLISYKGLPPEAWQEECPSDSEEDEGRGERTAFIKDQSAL
procedure-details: furin cleavage Z-score vs untreated control; higher = more cleavage, active = 3.5 or more, inactive = 1 or less, 8 variable residues between constant flanks
condition-notes: 30 min
The other results are listed elsewhere or left out. No count for the full screen is at hand.
The sequences listed here are annotated with their furin cleavage Z-score.

monomer-sequence	furin cleavage Z-score
CAAPPRARRHAGNASASA [FS-975]	6.85
CAHLHAPTGSAGNASASA [HC774]	0.623
CASRIRIERVAGNASASA [FS-1087]	2.24
CASRRRFYRPAGNASASA [FS-506]	-2.19
CASRRRMKRVAGNASASA [FS-1167]	9.11
CAMEMCSQHLAGNASASA [HC1706]	0.326
CAAYALDTEVAGNASASA [HC564]	0.258
